- System: Wolbachia pipientis
- assayName: Anti-Wolbachia Cell-Based Screen
- Type: functional
- Parameters: scale not given: in the data most compounds retested in dose-response had high values
- measurementSetup: 5 µM
The whole screen tested about 48,000 compounds, of which about 13,000 (27%) showed an effect of 50% or more. Some of the results follow.
measurementLabel: Percent Effect
Write down the value, and be sure its unit follows.

Some molecules with known Percent Effect results, for comparison:
Cc1nc(CN2CCCC2Cn2ccnc2C(C)C)nc2ccccc12 (configuration not stated) = 0.1374%
C[C@@H]1CN(C(=O)c2ccc(C#N)nc2)C[C@@]1(O)C1CC1 = -20.15%
CC(C)c1nccn1CC1CCCN1Cc1nc2ccccc2n1C (configuration not stated) = -4.978%
CC(CNC(=O)c1cc(N2CCNC2=O)ccc1F)c1ccccc1 (configuration not stated) = -2.028%
O=C(O)c1cc(C2=CCCCC2)cc(S(=O)(=O)NCc2ccccn2)c1 = -10.69%

In: Return reported Percent Effect. Input molecule: CC(C)S(=O)(=O)N1CCCC(c2nccn2Cc2cccnc2)C1 (configuration not stated)
Out: -1.301%

In: Return reported Percent Effect. Input molecule: CC(C)c1nccn1-c1nccnc1C1CCCN1Cc1ccccc1 (configuration not stated)
Out: 124.1%

In: Return reported Percent Effect. Input molecule: CC(C)n1cnnc1CN(C)Cc1cnc(-c2ccco2)nc1
Out: -3.944%

In: Return reported Percent Effect. Input molecule: CCOCCn1nc(C)cc1C(=O)N(C)Cc1cccc2ncccc12
Out: 6.003%

In: Return reported Percent Effect. Input molecule: CC(C)c1nccn1-c1nccnc1C1CCCN1Cc1cccnc1 (configuration not stated)
Out: 125.6%

In: Return reported Percent Effect. Input molecule: Cc1ncc(CNCC(=O)NC2CCCCC2)n1-c1ccccc1
Out: -6.194%

In: Return reported Percent Effect. Input molecule: CCOc1ccccc1C(CC(=O)N(C)C)NC(C)=O (configuration not stated)
Out: -2.972%

----------
- Tested on: Wolbachia pipientis
- assayName: Anti-Wolbachia Cell-Based Screen
- Assay type: functional
- Parameters: scale not given: in the data most compounds retested in dose-response had high values
- measurementSetup: 5 µM
In all, about 48,000 compounds went through this assay and about 13,000 (27%) showed an effect of 50% or more. The list shows a part of the results.
Below: a set of entries, each annotated with reported Percent Effect.
Give the value, in units of %, as a plain number.

CCc1ocnc1C(=O)N1CCC(C2CCN(c3ncccn3)CC2)C1 (centres undefined) = -3.497
CN(Cc1ccccn1)C(=O)c1ccc2c(c1O)OC(C)(C)C2 = -37.36

In: Return reported Percent Effect. Input compound: CN(Cc1nc(CC2CC2)no1)CC1Cc2ccccc2O1 (centres undefined)
Out: 1.11

----------
Below: a set of entries, each annotated with reported Percent Effect.
- Tested on: Wolbachia pipientis
- assayName: Anti-Wolbachia Cell-Based Screen
- Type: functional
- Design: scale not given: in the data most compounds retested in dose-response had high values
- measurementSetup: 5 µM
The campaign covered roughly 48,000 compounds. About 13,000 (27%) showed an effect of 50% or more. Some of the results follow.
Give the value, in units of %, as a plain number.

In: Return reported Percent Effect. Input compound: CN(CC(=O)NS(=O)(=O)c1ccsc1)Cc1ccccc1
Out: -14.35

In: Return reported Percent Effect. Input compound: COc1cccc2c1N(CC(=O)Nc1ccc(Br)cn1)CCC2
Out: -18.77

In: Return reported Percent Effect. Input compound: O=C(N[C@@H]1CCCNC1)C1(Oc2ccc(Cl)cc2)CCNCC1
Out: -9.041

In: Return reported Percent Effect. Input compound: Nc1ncc(-c2ccc(C(F)(F)F)cc2)c(C2CCCNC2)n1 (centres undefined)
Out: 52.9

In: Return reported Percent Effect. Input compound: CCS(=O)(=O)N1CCCC2(COCCN(c3cnccn3)C2)C1.O=C(O)C(F)(F)F (centres undefined)
Out: -1.156

In: Return reported Percent Effect. Input compound: Nc1ncc(-c2ccc(F)cc2)c(C2CCCNC2)n1 (centres undefined)
Out: 107.7

In: Return reported Percent Effect. Input compound: O=C(O)c1c[nH]c2cc(NS(=O)(=O)c3cc(F)ccc3Cl)ccc12
Out: 93.61

In: Return reported Percent Effect. Input compound: Fc1cnc(N2CCOCC3(CCCN(c4nncs4)C3)C2)nc1 (centres undefined)
Out: -12.3

In: Return reported Percent Effect. Input compound: Cn1cc(Br)c(=O)c(NS(=O)(=O)c2cc(F)ccc2Cl)c1
Out: -8.345

In: Return reported Percent Effect. Input compound: O=C(O)c1c[nH]c2cc(NS(=O)(=O)c3ccc(Cl)cc3F)ccc12
Out: 101.8

In: Return reported Percent Effect. Input compound: Fc1cnc(N2CCOCC3(CCCN(c4cnccn4)C3)C2)nc1 (centres undefined)
Out: -10.42

In: Return reported Percent Effect. Input compound: O=C(O)c1c[nH]c2cc(NS(=O)(=O)c3cccc(F)c3F)ccc12
Out: 98.18

In: Return reported Percent Effect. Input compound: Cc1ccc(N2CCCC3(COCCN(c4cnccn4)C3)C2)nn1 (centres undefined)
Out: 122.4

----------
Below: a set of entries, each annotated with reported Percent Effect.
- System: Wolbachia pipientis
- assayName: Anti-Wolbachia Cell-Based Screen
- Format: functional
- Design: scale not given: in the data most compounds retested in dose-response had high values
- measurementSetup: 5 µM
Screen size: about 48,000 compounds; about 13,000 (27%) showed an effect of 50% or more. Some of the results follow.
Give the value, in units of %, as a plain number.

In: // fetch Percent Effect; item: O=C(NCC1(c2ccc(F)cc2)CCC1)N1CCC2(C1)OCCO2 ; system: Wolbachia pipientis
Out: -19.46

In: // fetch Percent Effect; item: CCc1ccc(C2NCCc3cc4c(cc32)OCCO4)cc1 (stereo not given) ; system: Wolbachia pipientis
Out: 132.5

In: // fetch Percent Effect; item: CCC(Nc1ncnc2sc(C(=O)O)c(C)c12)c1ccnn1C (stereo not given) ; system: Wolbachia pipientis
Out: -0.5167

In: // fetch Percent Effect; item: COc1c(C2CCCN2C(=O)c2ccoc2)c(C)nn1C (stereo not given) ; system: Wolbachia pipientis
Out: 3.459

In: // fetch Percent Effect; item: CCOc1cc(C(=O)N2CCCC(c3noc(CC)n3)C2)ccn1 (stereo not given) ; system: Wolbachia pipientis
Out: 112.4

In: // fetch Percent Effect; item: CC(C)(CCS(C)(=O)=O)CNc1ccc2ccc(F)cc2n1 ; system: Wolbachia pipientis
Out: 0.04358

In: // fetch Percent Effect; item: CN1CC2(CCN(Cc3cccnc3)CC2)c2cc(F)ccc21 ; system: Wolbachia pipientis
Out: 3.699

----------
- Tested on: Wolbachia pipientis
- assayName: Anti-Wolbachia Cell-Based Screen
- Format: functional
- Design: scale not given: in the data most compounds retested in dose-response had high values
- measurementSetup: 5 µM
Out of some 48,000 compounds screened, about 13,000 (27%) showed an effect of 50% or more. This is one part of the list.
Below: a set of entries, each annotated with reported Percent Effect.

Cc1cc(C)c(Cn2cncn2)cc1CN1CCC(CN)C1 (stereo unspecified) = -0.9295%
CNC(=O)c1sc(C2CCCC2)nc1C = 1.771%
CC(C)Oc1ncc(C(=O)N2CCC(N(C)C)CC2)cc1Cl = -24.51%
CCNc1ncc(C(=O)N[C@H]2CC[C@H](n3cnnc3)CC2)cn1 = -5.329%
CC(C)NS(=O)(=O)c1cc(C(=O)O)cc(-c2ccc3c(c2)OCO3)c1 = 10.97%

In: Return reported Percent Effect. Input compound: CN(C)C(=O)c1cc2ncc(C(=O)NC3CCCC3)cc2n1C
Out: 130.7%

----------
- System: Wolbachia pipientis
- assayName: Anti-Wolbachia Cell-Based Screen
- Format: functional
- Set-up: scale not given: in the data most compounds retested in dose-response had high values
- measurementSetup: 5 µM
Out of some 48,000 compounds screened, about 13,000 (27%) showed an effect of 50% or more. Some of the results follow.
Below: a set of entries, each annotated with reported Percent Effect.
Give the value, in units of %, as a plain number.

CN(Cc1cnc(N)nc1)C(=O)C1CCN(C(=O)C2CCCC2)CC1 = -2.189
N#Cc1ccc(N2CCC3(CC2)CC(OCc2cccnc2)CO3)cc1.O=C(O)C(F)(F)F (configuration not stated) = 6.886
O=C(c1cc2c(s1)CCC2)N1CCC(c2ccncc2)CC1 = 202.7
CCn1cc(CN2CCCN(C(=O)c3ccccc3C)CC2)cn1 = 154.9
CN(C)Cc1cc(C2CCN(C(=O)C3CC34CCC4)CC2)nn1C.Cl (configuration not stated) = 106.1

In: // fetch Percent Effect; item: CCN(CC)c1ccc(NC(=O)NCC2CCOC2)cn1 (configuration not stated) ; system: Wolbachia pipientis
Out: 10.55

In: // fetch Percent Effect; item: CC(C)(C)OC(=O)Cn1nc(C2CC2)cc(C(F)(F)F)c1=O ; system: Wolbachia pipientis
Out: 2.885

In: // fetch Percent Effect; item: CC(C)(C)C(=O)Cn1nc(C2CC2)cc(C(F)(F)F)c1=O ; system: Wolbachia pipientis
Out: 3.486

In: // fetch Percent Effect; item: CN(CC1CCOC1)c1ccc(Br)cn1 (configuration not stated) ; system: Wolbachia pipientis
Out: 73.32

In: // fetch Percent Effect; item: CN(CC1CCOC1)c1ncc(Br)cn1 (configuration not stated) ; system: Wolbachia pipientis
Out: 108.2

In: // fetch Percent Effect; item: Cc1nc2c(c(N[C@H](C(N)=O)C(C)C)n1)Cc1ccccc1OC2 ; system: Wolbachia pipientis
Out: 105
